assay: Autosampler stability of ready for injection samples; assay type: physicochemical, human; conditions: validation standard ULOV
Please provide measured Autosampler (72h, 4°C) Accuracy [%] for the entries that follow.
# value in %; strip the unit string

Measured Autosampler (72h, 4°C) Accuracy [%], CCC1=C[C@@H]2CN(C1)Cc1c([nH]c3ccccc13)[C@@](C(=O)OC)(c1cc3c(cc1OC)N(C)[C@H]1[C@@](O)(C(=O)OC)[C@H](OC(C)=O)[C@]4(CC)C=CCN5CC[C@]31[C@@H]54)C2 : 99.5

Short answer for O=C(c1cc(Cc2n[nH]c(=O)c3ccccc23)ccc1F)N1CCN(C(=O)C2CC2)CC1 : Autosampler (72h, 4°C) Accuracy [%] was 100.5

The reported Autosampler (72h, 4°C) Accuracy [%] of the compound COc1cc(N2CCC(N3CCN(C)CC3)CC2)ccc1Nc1ncc(Cl)c(Nc2ccccc2P(C)(C)=O)n1 was 96.6
